From: patent US20230312601A1

System: male Sprague-Dawley rats
Assay: Cardiovascular Assay in anesthetized rats
Format: in vivo
Conditions: change from vehicle, dose 30 mg/kg, rat
MEASURED_PROPERTY: dP/dt@50 (%)
# unit: % | format: bare number

Form field dP/dt@50 (%), entry CO[C@H](c1c(Nc2ccc([C@H](N(C)C(=O)C3CCS(=O)(=O)CC3)C(F)(F)F)cc2)cnc2sc(C)nc12)C(F)F [Example 3] : −3

Form field dP/dt@50 (%), entry CO[C@@H](C)c1c(Nc2ccc([C@H](N(C)C(=O)C3CCS(=O)(=O)CC3)C(F)(F)F)cc2)cnc2sc(C)nc12 [Example 1] : 11

Form field dP/dt@50 (%), entry CO[C@@H](C)c1c(Nc2ccc([C@H](N(C)C(=O)C3CCN(C(C)=O)CC3)C(F)(F)F)cc2)cnc2sc(C)nc12 [Example 19] : −3

Form field dP/dt@50 (%), entry CO[C@@H](c1c(Nc2ccc([C@H](N(C)C(=O)C3CCN(C(C)=O)CC3)C(F)(F)F)cc2)cnc2sc(C)nc12)C(F)F [Example 33] : 7

Form field dP/dt@50 (%), entry CO[C@@H](C)c1c(Nc2ccc([C@H](N(C)C(=O)C3CCS(=O)(=O)CC3)C(F)(F)F)cc2)cnc2cc(Cl)nn12 [Comparative Example A, reference compound] : −6
